settings: in n-butanol, 293.15 K
metric.name: solubility (mole fraction)

# input Reported solubility (mole fraction) for C/C=C/C=C/C(=O)O : what is it?
# output 0.0844

* * *

settings: in isopropanol, 289.15 K
metric.name: solubility (mole fraction)
Just the number, please, no unit attached.

# input Reported solubility (mole fraction) for C/C=C/C=C/C(=O)O : what is it?
# output 0.0444

* * *

settings: in isopropanol, 308.15 K
metric.name: solubility (mole fraction)
Just the number, please, no unit attached.

# input Reported solubility (mole fraction) for C/C=C/C=C/C(=O)O : what is it?
# output 0.0753

* * *

settings: in acetonitrile, 312.65 K
metric.name: solubility (mole fraction)

# input Reported solubility (mole fraction) for C/C=C/C=C/C(=O)O : what is it?
# output 0.0196

* * *

conditions: in methanol, 308.15 K
metric.name: solubility (mole fraction)
Just the number, please, no unit attached.

# input Reported solubility (mole fraction) for C/C=C/C=C/C(=O)O : what is it?
# output 0.0749

* * *

settings: in n-butanol, 318.15 K
metric.name: solubility (mole fraction)
Just the number, please, no unit attached.

# input Reported solubility (mole fraction) for C/C=C/C=C/C(=O)O : what is it?
# output 0.154

* * *

details: in ethanol, 312.65 K
metric.name: solubility (mole fraction)
Just the number, please, no unit attached.

# input Reported solubility (mole fraction) for C/C=C/C=C/C(=O)O : what is it?
# output 0.101

* * *

settings: in isopropanol, 312.65 K
metric.name: solubility (mole fraction)
Just the number, please, no unit attached.

# input Reported solubility (mole fraction) for C/C=C/C=C/C(=O)O : what is it?
# output 0.086

* * *

details: in acetonitrile, 303.15 K
metric.name: solubility (mole fraction)
Just the number, please, no unit attached.

# input Reported solubility (mole fraction) for C/C=C/C=C/C(=O)O : what is it?
# output 0.0149

* * *

conditions: in acetone, 298.15 K
metric.name: solubility (mole fraction)
Just the number, please, no unit attached.

# input Reported solubility (mole fraction) for C/C=C/C=C/C(=O)O : what is it?
# output 0.0701

* * *

settings: in ethanol, 289.15 K
metric.name: solubility (mole fraction)

# input Reported solubility (mole fraction) for C/C=C/C=C/C(=O)O : what is it?
# output 0.0488

* * *

settings: in acetone, 308.15 K
metric.name: solubility (mole fraction)

# input Reported solubility (mole fraction) for C/C=C/C=C/C(=O)O : what is it?
# output 0.0968

* * *

settings: in acetonitrile, 285.15 K
metric.name: solubility (mole fraction)

# input Reported solubility (mole fraction) for C/C=C/C=C/C(=O)O : what is it?
# output 0.00625

* * *

details: in acetonitrile, 298.15 K
metric.name: solubility (mole fraction)
Just the number, please, no unit attached.

# input Reported solubility (mole fraction) for C/C=C/C=C/C(=O)O : what is it?
# output 0.0112

* * *

details: in isopropanol, 285.15 K
metric.name: solubility (mole fraction)
Just the number, please, no unit attached.

# input Reported solubility (mole fraction) for C/C=C/C=C/C(=O)O : what is it?
# output 0.0383

* * *

conditions: in MTBE, 323.15 K
metric.name: solubility (mole fraction)
Just the number, please, no unit attached.

# input Reported solubility (mole fraction) for C/C=C/C=C/C(=O)O : what is it?
# output 0.121

These measurements were taken from BigSolDB 2.1.
